The reported measurements were obtained from ChEMBL document CHEMBL3576849.

# TARGET OR SYSTEM: Urotensin-2 receptor (Rattus norvegicus) (UniProt P49684)
# Sequence (whole entry): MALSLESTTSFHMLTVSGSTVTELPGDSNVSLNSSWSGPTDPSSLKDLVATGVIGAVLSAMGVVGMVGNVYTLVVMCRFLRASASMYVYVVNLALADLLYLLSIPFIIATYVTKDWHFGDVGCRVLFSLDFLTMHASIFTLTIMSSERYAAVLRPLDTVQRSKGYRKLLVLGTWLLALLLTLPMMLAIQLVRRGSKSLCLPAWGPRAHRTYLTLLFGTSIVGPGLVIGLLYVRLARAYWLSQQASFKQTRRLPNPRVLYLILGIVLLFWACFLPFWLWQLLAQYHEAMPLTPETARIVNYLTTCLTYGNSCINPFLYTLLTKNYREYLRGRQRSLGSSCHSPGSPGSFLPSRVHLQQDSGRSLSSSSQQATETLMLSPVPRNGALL
# PROTOCOL DESCRIPTION: Modulation of urotensin-2 receptor in Sprague-Dawley rat thoracic aortic ring assessed as urotensin-2 related peptide Emax for induction of aortic ring contraction at 10 uM preincubated for 15 mins followed by urotensin-2 related peptide addition (reference value: 132 +/- 4%)
Class Fulfilled: Emax at least 90%. Class Not fulfilled: Emax below 90%.

Example entries begin here.
SMILES STRUCTURE: NCCC[C@@H]1N=C(c2cccc3ccccc23)c2[nH]c(C(=O)O)cc2N(CCc2ccc(O)cc2)C1=O
CATEGORY: Not fulfilled
//
SMILES STRUCTURE: NCCC[C@@H]1N[C@@H](c2cccc3ccccc23)c2[nH]c(C(=O)O)cc2N(CCc2ccc(O)cc2)C1=O
CATEGORY: Fulfilled
//
SMILES STRUCTURE: NCCC[C@@H]1N=C(c2ccc(-c3ccccc3)cc2)c2[nH]c(C(=O)O)cc2N(CCc2ccc(O)cc2)C1=O
CATEGORY: Fulfilled
//
SMILES STRUCTURE: NCCCC[C@@H]1N=C(c2ccc3ccccc3c2)c2[nH]c(C(=O)O)cc2N(CCc2ccc(O)cc2)C1=O
CATEGORY: Not fulfilled
//
SMILES STRUCTURE: NCCC[C@@H]1N=C(c2ccc3ccccc3c2)c2[nH]c(C(=O)O)cc2N(CCc2ccc(O)cc2)C1=O
CATEGORY: Fulfilled

Query string: Threshold query (Emax >= 90%) on NCCC[C@@H]1N[C@H](c2cccc3ccccc23)c2[nH]c(C(=O)O)cc2N(CCc2ccc(O)cc2)C1=O
Result string: Fulfilled

Query string: For NCCCC[C@@H]1N[C@@H](c2ccc3ccccc3c2)c2[nH]c(C(=O)O)cc2N(CCc2ccc(O)cc2)C1=O then?
Result string: Fulfilled

Query string: For NCCCC[C@@H]1N[C@H](c2ccc3ccccc3c2)c2[nH]c(C(=O)O)cc2N(CCc2ccc(O)cc2)C1=O then?
Result string: Fulfilled
